Tested on: gray mold fungus (Botrytis cinerea)
assay_text: Cucumber leaf disk preventive test against gray mold
Format: in vivo
conditions: partner fungicide alone 5.0 ppm, dimethyl sulfoxide solution; cucumber leaf disk, 15° C., four days
endpoint_label: preventive value (%)

If you can, please state the reported preventive value (%) value of Cc1nn(C)c(F)c1C(=O)Nc1ccccc1C(C)CC(C)C (centres unmarked) .
15%

Requested read-out: preventive value (%). Entry: CC(=O)Oc1c(C)c(C)nc2c(F)cc(C(C)(C)C)cc12
15%

# get_value(readout='preventive value (%)', item= CCO[PH](=O)O )
20%

Any idea what its preventive value (%) is? The compound is COc1cc(C)c(C(=O)c2c(OC)ccc(Br)c2C)c(OC)c1OC
15%

Look at this compound and give its reported preventive value (%). Cn1cc(C(=O)Nc2ccccc2C2CC2C2CC2)c(C(F)F)n1 (centres unmarked)
40%

----------
System: gray mold fungus (Botrytis cinerea)
assay_text: Cucumber leaf disk preventive test against gray mold
Assay type: in vivo
conditions: Botrytis cinerea, foliar, 96 h; partner fungicide alone 0.5 ppm, dimethyl sulfoxide solution; cucumber leaf disk, 15° C., four days; read-out: preventive value (%)
Listed molecules paired with reported pest or weed control at 0.5 ppm
Respond numerically; units are % and should not be typed.

Known pest or weed control at 0.5 ppm results, listed for orientation:
[[record]]
molecule = "O=C1OCc2ccccc21 [phthalide]"
tested_system = "gray mold fungus (Botrytis cinerea)"
endpoint_label = "pest or weed control at 0.5 ppm"
uom = "%"
numeric_value = 10

[[record]]
molecule = "CCOc1ccc(NC(=O)OC(C)C)cc1OCC"
tested_system = "gray mold fungus (Botrytis cinerea)"
endpoint_label = "pest or weed control at 0.5 ppm"
uom = "%"
numeric_value = 0

[[record]]
molecule = "CCCN(CC)CC1COC2(CCC(C(C)(C)C)CC2)O1 (stereo not shown)"
tested_system = "gray mold fungus (Botrytis cinerea)"
endpoint_label = "pest or weed control at 0.5 ppm"
uom = "%"
numeric_value = 10

[[record]]
molecule = "N#Cc1c(Cl)c(Cl)c(Cl)c(C#N)c1Cl"
tested_system = "gray mold fungus (Botrytis cinerea)"
endpoint_label = "pest or weed control at 0.5 ppm"
uom = "%"
numeric_value = 15

[[record]]
molecule = "N#Cc1sc2c(=O)c3ccccc3c(=O)c=2sc1C#N"
tested_system = "gray mold fungus (Botrytis cinerea)"
endpoint_label = "pest or weed control at 0.5 ppm"
uom = "%"
numeric_value = 15

[[record]]
molecule = "O=C(Cc1ccccc1)N/C(=N\\OCC1CC1)c1c(C(F)(F)F)ccc(F)c1F"
tested_system = "gray mold fungus (Botrytis cinerea)"
endpoint_label = "pest or weed control at 0.5 ppm"
uom = "%"
numeric_value = 10


Param item = O=[N+]([O-])c1cc(C(F)(F)F)c(Cl)c([N+](=O)[O-])c1Nc1ncc(C(F)(F)F)cc1Cl ; retrieve measured pest or weed control at 0.5 ppm.
47
